system: carbonyl reductase from Lactococcus lactis; assay: CRLL activity assay (decrease of NADPH absorption); substrate table of the isolated carbonyl reductase; type: biochemical; details: Substrate (20 mM)
Would you mind telling me the reported Activity (U/mL) of each entry?
Express it in U/mL; write the number only.

Req: Entry CC1(C)COC(=O)C1=O needs its Activity (U/mL) filled in; supply it.
Resp: 9.49

Req: Entry CCCC(=O)CC(=O)OCC [ethyl 3-oxohexanoate] needs its Activity (U/mL) filled in; supply it.
Resp: 9.64

Req: Entry CC1CC(=O)CC(C)(C)C1 (stereo not shown) needs its Activity (U/mL) filled in; supply it.
Resp: 0.24

Req: Entry CCCCCCCC=O needs its Activity (U/mL) filled in; supply it.
Resp: 10.93

Req: Entry CCOC(=O)C(C)=O [ethyl pyruvate] needs its Activity (U/mL) filled in; supply it.
Resp: 16.32

Req: Entry CCOCCO needs its Activity (U/mL) filled in; supply it.
Resp: 0.0128

Req: Entry O=C1CCCCC1 needs its Activity (U/mL) filled in; supply it.
Resp: 49
